target: MKNK2 (human)
property.name: Kd (nM)
State the answer as a number, implicitly in nM.

Req: # Kd lookup, item "COc1cc2ncnc(Oc3cccc(NC(=O)Nc4cc(C(C)(C)C(F)(F)F)on4)c3)c2cc1OC"
Resp: 71

---

target: ABL1 (human), P00519 [Q252H]; test: KINOMEscan competition binding
property.name: Kd (nM)
State the answer as a number, implicitly in nM.

Req: # Kd lookup, item "COc1cc2ncnc(Oc3cccc(NC(=O)Nc4cc(C(C)(C)C(F)(F)F)on4)c3)c2cc1OC"
Resp: 9.9

---

biological target: UniProt P12931
property.name: Kd (nM)
State the answer as a number, implicitly in nM.

Req: # Kd lookup, item "COc1cc2ncnc(Oc3cccc(NC(=O)Nc4cc(C(C)(C)C(F)(F)F)on4)c3)c2cc1OC"
Resp: 99

---

biological target: MYLK3 (human) (UniProt Q32MK0)
Sequence (Q32MK0 whole entry, looked up): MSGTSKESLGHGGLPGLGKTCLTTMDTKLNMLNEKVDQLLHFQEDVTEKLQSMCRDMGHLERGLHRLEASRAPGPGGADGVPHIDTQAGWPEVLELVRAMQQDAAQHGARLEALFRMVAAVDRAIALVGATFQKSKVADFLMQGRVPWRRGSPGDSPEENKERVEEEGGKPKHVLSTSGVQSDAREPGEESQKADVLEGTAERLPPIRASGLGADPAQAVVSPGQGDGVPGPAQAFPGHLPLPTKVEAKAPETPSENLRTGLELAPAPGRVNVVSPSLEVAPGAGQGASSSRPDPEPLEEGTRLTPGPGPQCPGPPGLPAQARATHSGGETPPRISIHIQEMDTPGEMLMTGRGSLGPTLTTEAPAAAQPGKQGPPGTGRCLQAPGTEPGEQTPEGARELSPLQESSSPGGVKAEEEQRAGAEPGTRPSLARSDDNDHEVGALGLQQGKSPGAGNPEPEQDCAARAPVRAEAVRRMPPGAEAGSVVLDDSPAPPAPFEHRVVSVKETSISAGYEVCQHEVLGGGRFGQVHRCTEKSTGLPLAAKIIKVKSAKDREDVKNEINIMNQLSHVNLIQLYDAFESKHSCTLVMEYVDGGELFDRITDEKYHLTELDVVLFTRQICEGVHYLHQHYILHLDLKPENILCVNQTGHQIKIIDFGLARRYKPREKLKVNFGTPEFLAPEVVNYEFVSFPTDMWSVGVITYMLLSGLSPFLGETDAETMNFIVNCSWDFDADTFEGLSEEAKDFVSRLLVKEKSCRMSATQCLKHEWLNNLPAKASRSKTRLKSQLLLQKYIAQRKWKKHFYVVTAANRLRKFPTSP
property.name: pKd
On this scale, pKd is minus log10 of a concentration expressed in M (mol/L).

Req: # pKd lookup, item "COc1cc2ncnc(Oc3cccc(NC(=O)Nc4cc(C(C)(C)C(F)(F)F)on4)c3)c2cc1OC"
Resp: 4.59

---

target: NTRK3 (human) (UniProt Q16288)
Sequence (Q16288 whole entry, looked up): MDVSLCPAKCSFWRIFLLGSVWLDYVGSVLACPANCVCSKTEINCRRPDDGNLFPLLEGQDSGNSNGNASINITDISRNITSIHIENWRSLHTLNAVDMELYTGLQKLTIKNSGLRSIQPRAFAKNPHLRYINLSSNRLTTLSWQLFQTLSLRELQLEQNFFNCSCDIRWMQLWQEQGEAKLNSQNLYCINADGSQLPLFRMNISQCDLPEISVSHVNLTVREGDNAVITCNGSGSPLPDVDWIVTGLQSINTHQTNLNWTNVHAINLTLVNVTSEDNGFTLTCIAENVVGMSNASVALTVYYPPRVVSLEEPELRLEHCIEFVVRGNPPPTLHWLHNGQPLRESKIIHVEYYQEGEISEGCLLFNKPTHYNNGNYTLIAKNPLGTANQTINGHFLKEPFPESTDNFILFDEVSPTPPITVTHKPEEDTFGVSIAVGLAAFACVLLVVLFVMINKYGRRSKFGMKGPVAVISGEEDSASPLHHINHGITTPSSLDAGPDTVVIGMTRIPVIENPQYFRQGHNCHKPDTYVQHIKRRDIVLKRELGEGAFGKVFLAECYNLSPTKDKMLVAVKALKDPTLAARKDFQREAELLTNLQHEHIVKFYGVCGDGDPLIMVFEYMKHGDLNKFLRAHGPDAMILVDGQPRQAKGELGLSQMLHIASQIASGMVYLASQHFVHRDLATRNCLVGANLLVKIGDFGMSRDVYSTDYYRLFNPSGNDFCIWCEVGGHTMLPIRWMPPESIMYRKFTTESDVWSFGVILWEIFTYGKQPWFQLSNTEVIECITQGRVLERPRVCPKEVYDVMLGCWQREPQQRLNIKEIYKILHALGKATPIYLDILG
property.name: Kd (nM)
State the answer as a number, implicitly in nM.

Req: # Kd lookup, item "COc1cc2ncnc(Oc3cccc(NC(=O)Nc4cc(C(C)(C)C(F)(F)F)on4)c3)c2cc1OC"
Resp: 2200

---

biological target: SLK (human)
property.name: pKd
On this scale, pKd is minus log10 of a concentration expressed in M (mol/L).

Req: // map "COc1cc2ncnc(Oc3cccc(NC(=O)Nc4cc(C(C)(C)C(F)(F)F)on4)c3)c2cc1OC" to recorded pKd (system: SLK (human))
Resp: 7.70

---

molecular target: UniProt Q6PHR2
Sequence (Q6PHR2 whole entry, looked up): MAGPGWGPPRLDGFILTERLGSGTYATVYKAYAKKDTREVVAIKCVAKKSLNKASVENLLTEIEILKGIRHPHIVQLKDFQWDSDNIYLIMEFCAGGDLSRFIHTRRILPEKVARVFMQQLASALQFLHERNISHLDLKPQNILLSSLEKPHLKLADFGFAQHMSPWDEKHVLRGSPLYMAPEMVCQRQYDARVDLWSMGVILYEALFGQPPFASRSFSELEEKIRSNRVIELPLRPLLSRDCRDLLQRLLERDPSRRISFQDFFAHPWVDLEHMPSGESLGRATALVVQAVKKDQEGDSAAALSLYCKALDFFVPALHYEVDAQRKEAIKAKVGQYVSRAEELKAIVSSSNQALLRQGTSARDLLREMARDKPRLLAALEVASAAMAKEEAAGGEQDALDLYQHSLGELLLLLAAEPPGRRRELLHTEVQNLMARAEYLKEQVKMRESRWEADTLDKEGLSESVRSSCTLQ
property.name: pKd
On this scale, pKd is minus log10 of a concentration expressed in M (mol/L).

Req: # pKd lookup, item "COc1cc2ncnc(Oc3cccc(NC(=O)Nc4cc(C(C)(C)C(F)(F)F)on4)c3)c2cc1OC"
Resp: 4.89

---

molecular target: MAP4K4 (human) (UniProt O95819)
Sequence (O95819 whole entry, looked up): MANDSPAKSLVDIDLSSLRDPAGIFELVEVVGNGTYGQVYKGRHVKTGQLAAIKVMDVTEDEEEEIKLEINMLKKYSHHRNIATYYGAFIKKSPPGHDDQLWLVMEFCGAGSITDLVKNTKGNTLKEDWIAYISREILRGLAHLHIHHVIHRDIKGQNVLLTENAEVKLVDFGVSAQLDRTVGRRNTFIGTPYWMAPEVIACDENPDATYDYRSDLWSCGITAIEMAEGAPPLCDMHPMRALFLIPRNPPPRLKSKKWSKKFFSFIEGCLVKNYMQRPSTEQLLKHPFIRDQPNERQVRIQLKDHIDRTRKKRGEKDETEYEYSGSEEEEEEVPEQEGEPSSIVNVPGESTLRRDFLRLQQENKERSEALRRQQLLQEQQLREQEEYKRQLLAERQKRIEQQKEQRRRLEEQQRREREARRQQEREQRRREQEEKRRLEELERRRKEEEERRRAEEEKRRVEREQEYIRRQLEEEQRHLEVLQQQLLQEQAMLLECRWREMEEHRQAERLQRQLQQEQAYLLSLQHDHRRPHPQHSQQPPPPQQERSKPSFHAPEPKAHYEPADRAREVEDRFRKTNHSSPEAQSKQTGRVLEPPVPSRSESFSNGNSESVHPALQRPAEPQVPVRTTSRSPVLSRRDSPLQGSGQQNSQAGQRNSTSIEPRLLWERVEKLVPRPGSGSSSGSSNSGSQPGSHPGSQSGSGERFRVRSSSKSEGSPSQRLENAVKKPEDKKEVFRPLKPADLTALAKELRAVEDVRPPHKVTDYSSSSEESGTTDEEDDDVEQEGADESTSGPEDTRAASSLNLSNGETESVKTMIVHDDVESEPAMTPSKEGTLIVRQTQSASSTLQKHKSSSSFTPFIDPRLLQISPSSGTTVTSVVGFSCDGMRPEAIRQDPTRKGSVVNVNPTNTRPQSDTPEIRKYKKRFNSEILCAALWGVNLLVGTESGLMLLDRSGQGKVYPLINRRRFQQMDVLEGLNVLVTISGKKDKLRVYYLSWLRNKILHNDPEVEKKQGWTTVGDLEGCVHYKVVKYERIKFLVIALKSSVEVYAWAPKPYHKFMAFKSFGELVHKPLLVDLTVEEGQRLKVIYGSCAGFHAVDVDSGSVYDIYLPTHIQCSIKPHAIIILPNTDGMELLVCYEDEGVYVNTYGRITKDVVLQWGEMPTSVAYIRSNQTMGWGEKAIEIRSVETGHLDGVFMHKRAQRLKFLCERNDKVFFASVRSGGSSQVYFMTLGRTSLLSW
property.name: Kd (nM)
State the answer as a number, implicitly in nM.

Req: // map "COc1cc2ncnc(Oc3cccc(NC(=O)Nc4cc(C(C)(C)C(F)(F)F)on4)c3)c2cc1OC" to recorded Kd (system: MAP4K4 (human) (UniProt O95819))
Resp: 56

---

molecular target: UniProt:Q16832
Sequence (Q16832 whole entry, looked up): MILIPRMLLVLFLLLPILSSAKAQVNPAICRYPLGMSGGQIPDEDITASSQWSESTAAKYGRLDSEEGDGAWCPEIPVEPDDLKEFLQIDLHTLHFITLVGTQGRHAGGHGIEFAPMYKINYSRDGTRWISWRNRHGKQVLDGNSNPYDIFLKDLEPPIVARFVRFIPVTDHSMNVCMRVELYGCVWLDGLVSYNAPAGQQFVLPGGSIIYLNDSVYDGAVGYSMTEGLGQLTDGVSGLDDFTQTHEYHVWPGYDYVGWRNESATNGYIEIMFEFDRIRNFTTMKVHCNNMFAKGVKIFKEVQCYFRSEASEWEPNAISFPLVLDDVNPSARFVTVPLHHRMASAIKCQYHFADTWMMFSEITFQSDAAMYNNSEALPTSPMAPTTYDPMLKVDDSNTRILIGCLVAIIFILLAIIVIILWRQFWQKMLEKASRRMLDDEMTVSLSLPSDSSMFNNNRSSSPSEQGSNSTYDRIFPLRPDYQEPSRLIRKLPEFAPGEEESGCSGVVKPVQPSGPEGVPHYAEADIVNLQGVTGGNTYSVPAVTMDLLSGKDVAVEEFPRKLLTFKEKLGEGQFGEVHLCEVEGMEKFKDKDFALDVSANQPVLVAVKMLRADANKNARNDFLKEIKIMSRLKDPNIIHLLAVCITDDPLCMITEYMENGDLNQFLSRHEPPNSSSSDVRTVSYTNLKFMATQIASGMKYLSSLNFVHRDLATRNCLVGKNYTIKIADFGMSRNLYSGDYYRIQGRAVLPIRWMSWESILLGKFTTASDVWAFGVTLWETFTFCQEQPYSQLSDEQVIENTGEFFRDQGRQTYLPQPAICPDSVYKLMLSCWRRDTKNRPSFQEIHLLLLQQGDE
property.name: pKd
On this scale, pKd is minus log10 of a concentration expressed in M (mol/L).

Req: # pKd lookup, item "COc1cc2ncnc(Oc3cccc(NC(=O)Nc4cc(C(C)(C)C(F)(F)F)on4)c3)c2cc1OC"
Resp: 8.27

---

target: PIM2 (human) (UniProt Q9P1W9)
Sequence (Q9P1W9 whole entry, looked up): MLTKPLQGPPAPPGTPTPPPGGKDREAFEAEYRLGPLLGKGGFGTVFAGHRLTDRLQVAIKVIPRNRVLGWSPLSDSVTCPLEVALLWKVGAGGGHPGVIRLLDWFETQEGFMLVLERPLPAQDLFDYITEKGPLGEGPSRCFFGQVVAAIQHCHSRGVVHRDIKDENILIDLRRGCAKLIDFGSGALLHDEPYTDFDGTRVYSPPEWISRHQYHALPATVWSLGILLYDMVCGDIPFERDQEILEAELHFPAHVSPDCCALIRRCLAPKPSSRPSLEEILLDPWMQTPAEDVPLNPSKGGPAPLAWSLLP
property.name: pKd
On this scale, pKd is minus log10 of a concentration expressed in M (mol/L).

Req: // map "COc1cc2ncnc(Oc3cccc(NC(=O)Nc4cc(C(C)(C)C(F)(F)F)on4)c3)c2cc1OC" to recorded pKd (system: PIM2 (human) (UniProt Q9P1W9))
Resp: 4.59

---

molecular target: MAPK12 (human) (UniProt P53778)
Sequence (P53778 whole entry, looked up): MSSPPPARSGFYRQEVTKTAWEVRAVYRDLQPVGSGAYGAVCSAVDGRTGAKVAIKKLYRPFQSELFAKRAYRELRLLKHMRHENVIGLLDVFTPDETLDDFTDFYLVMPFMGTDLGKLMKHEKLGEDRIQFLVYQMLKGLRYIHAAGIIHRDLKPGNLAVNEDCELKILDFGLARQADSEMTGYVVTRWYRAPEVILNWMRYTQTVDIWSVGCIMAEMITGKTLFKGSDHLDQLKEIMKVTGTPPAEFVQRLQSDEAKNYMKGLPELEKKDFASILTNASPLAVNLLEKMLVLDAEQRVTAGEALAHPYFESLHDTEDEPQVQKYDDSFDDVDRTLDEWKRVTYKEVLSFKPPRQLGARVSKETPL
property.name: Kd (nM)
State the answer as a number, implicitly in nM.

Req: # Kd lookup, item "COc1cc2ncnc(Oc3cccc(NC(=O)Nc4cc(C(C)(C)C(F)(F)F)on4)c3)c2cc1OC"
Resp: 1300

Taken from the kinase profiling compilation of Christmann-Franck et al. (2016).
